measuredOn: T1, apical domain of cynomolgus CD71 (cynomolgus, UniProt A0A2K5X958 189-383)
T1 construct: domain: apical domain; also called Cyno apical domain
testSummary: primary ELISA; further: test concentration or dose not given here
reportedMetric: RLU (RLU)

CD71-binding FN3 domain of SEQ ID NO: 150 (designed binder) MSLPAPKNLVVSRVTEDSARLSWTAPDAAFDSFDIGYFENSYAGEAIVLTVPGSERSYDLTGLKPGTEYYVSIAGVKGGRFSPPLSAIFTT ... 4.18e+06
CD71-binding FN3 domain of SEQ ID NO: 121 (designed binder) MSLPAPKNLVVSRVTEDSARLSWTAPDAAFDSFFIGYLEPQPPGEAITLYVPGSERSYDLTGLKPGTEYNVTIQGVKGGFPSAPLSAIFTT ... 6.22e+06
CD71-binding FN3 domain of SEQ ID NO: 159 (designed binder) MSLPAPKNLVVSRVTEDSARLSWTAPDAAFDSFEIVYQENSAYGEAIVLTVPGSERSYDLTGLKPGTEYWVQIGGVKGGNWSAPLSAISTT ... 4.77e+06
CD71-binding FN3 domain of SEQ ID NO: 211 (designed binder) MSLPAPKNLVVSRVTEDSARLSWTAPDAAFDSFEIVYAEPVRFGEAIVLTVPGSERSYDLTGLKPGTEYWVQIGGVKGGEWSSLLSAIFTT ... 4.67e+06
